Target: BIR2 domain of XIAP (Homo sapiens (Human), UniProt P98170, C202A/C213G)
Sequence (P98170 other isoform, or with tags, fused parts or gaps, stated change not applied): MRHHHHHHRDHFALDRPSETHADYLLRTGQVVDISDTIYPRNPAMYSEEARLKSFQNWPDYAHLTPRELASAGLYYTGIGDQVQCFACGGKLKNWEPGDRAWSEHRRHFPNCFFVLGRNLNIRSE
Experiment: TR-FRET assay for BIR2: inhibition of binding of the XIAP BIR2 domain to Peptide A (SMAC-derived peptide)
Conditions: 6x His-tagged BIR2 domain (aa 124-240 of XIAP), 10 nM; 20 nM Peptide A; TR-FRET; read-out: Ic50 BIR2
Structures can show the parent of a compound that is named as a salt.
readout: pIC50
Scale note: pIC50 = -log10(concentration in M).

{"columns": ["compound", "reported result"],
 "data": [
  ["CN[C@@H](C)C(=O)N[C@H](C(=O)N1c2ncccc2C[C@H]1CNC(=O)C(C)c1ccccc1)C(C)C (some centres unmarked) [Example 8, hydrochloride]", 5.59]
]}

Moving on to the next compound.
Prompt: Supply recorded pIC50 for CN[C@@H](C)C(=O)N[C@H](C(=O)N1c2ncccc2C[C@H]1CNC(=O)OCc1ccccc1)C(C)C here.
Response: 5.98

---

Molecular target: BIR3 domain of XIAP (Homo sapiens (Human))
Assay: TR-FRET assay for BIR3: inhibition of binding of the XIAP BIR3 domain to Peptide A (SMAC-derived peptide)
pIC50: −log10 of the molar value. Where a name gives a salt, the structure may show the parent alone.
readout: pIC50

Prompt: Determine reported pIC50 for CN[C@@H](C)C(=O)N[C@H](C(=O)N1c2ncccc2C[C@H]1CNC(=O)Oc1ccccc1)C(C)C [Example 12, hydrochloride] ; test system: BIR3 domain of XIAP (Homo sapiens (Human)).
Response: < 4.26

---

Quick list: pIC50 per entry.
Target: BIR3 domain of XIAP (Homo sapiens (Human))
Assay: TR-FRET assay for BIR3: inhibition of binding of the XIAP BIR3 domain to Peptide A (SMAC-derived peptide)
Details: 6x His-tagged BIR3 domain (aa 241-356 of XIAP), 10 nM; 20 nM Peptide A; TR-FRET; read-out: Ic50 BIR3
pIC50: −log10 of the molar value. Where a name gives a salt, the structure may show the parent alone.

Field: example entries. Status: answers known.
{"columns": ["compound", "pIC50"],
 "data": [
  ["CN[C@@H](C)C(=O)N[C@H](C(=O)N1c2ncccc2C[C@H]1CNC(=O)c1ccccc1)C(C)C [Example 1, hydrochloride]", 4.28],
  ["CN[C@@H](C)C(=O)N[C@H](C(=O)N1c2ncccc2C[C@H]1CNC(=O)OCc1ccccc1)C(C)C", "< 4.26"],
  ["CN[C@@H](C)C(=O)N[C@H](C(=O)N1c2ncccc2C[C@H]1CNC(=O)Nc1ccccc1)C(C)C [Example 7, hydrochloride]", "< 4.26"]
]}

Prompt: Determine reported pIC50 for CN[C@@H](C)C(=O)N[C@H](C(=O)N1c2ncccc2C[C@H]1CNC(=O)C(C)c1ccccc1)C(C)C (stereo partly drawn) [Example 8, hydrochloride] ; test system: BIR3 domain of XIAP (Homo sapiens (Human)).
Response: < 4.26

Prompt: Determine reported pIC50 for CN[C@@H](C)C(=O)N[C@H](C(=O)N1c2ncccc2C[C@H]1CNC(=O)OC)C(C)C [Example 5, hydrochloride] ; test system: BIR3 domain of XIAP (Homo sapiens (Human)).
Response: < 4.26

Prompt: Determine reported pIC50 for CN[C@@H](C)C(=O)N[C@H](C(=O)N1c2ncccc2C[C@H]1CNS(C)(=O)=O)C(C)C [Example 9, hydrochloride] ; test system: BIR3 domain of XIAP (Homo sapiens (Human)).
Response: < 4.26

Prompt: Determine reported pIC50 for CN[C@@H](C)C(=O)N[C@H](C(=O)N1c2ncccc2C[C@H]1CNC(=O)N(C)C)C(C)C [Example 6, hydrochloride] ; test system: BIR3 domain of XIAP (Homo sapiens (Human)).
Response: < 4.26

Prompt: Determine reported pIC50 for CN[C@@H](C)C(=O)N[C@H](C(=O)N1c2ncccc2C[C@H]1CNc1ccc2ccccc2c1)C(C)C [Example 14, hydrochloride] ; test system: BIR3 domain of XIAP (Homo sapiens (Human)).
Response: 5.40

Prompt: Determine reported pIC50 for CN[C@@H](C)C(=O)N[C@H](C(=O)N1c2ncccc2C[C@H]1CNC(=O)Cc1ccccc1)C(C)C [Example 4, hydrochloride] ; test system: BIR3 domain of XIAP (Homo sapiens (Human)).
Response: < 4.26

Prompt: Determine reported pIC50 for CNC(=O)NCC1Cc2cccnc2N1C(=O)[C@@H](NC(=O)[C@H](C)NC)C(C)C (stereo partly drawn) [Example 3, hydrochloride] ; test system: BIR3 domain of XIAP (Homo sapiens (Human)).
Response: < 4.26

Prompt: Determine reported pIC50 for CN[C@@H](C)C(=O)N[C@H](C(=O)N1c2ncccc2C[C@H]1CNS(=O)(=O)c1ccccc1)C(C)C [Example 10, hydrochloride] ; test system: BIR3 domain of XIAP (Homo sapiens (Human)).
Response: < 4.26

Prompt: Determine reported pIC50 for CN[C@@H](C)C(=O)N[C@H](C(=O)N1c2ncccc2C[C@H]1CNc1ccccc1)C(C)C [Example 13, hydrochloride] ; test system: BIR3 domain of XIAP (Homo sapiens (Human)).
Response: 5.27

---

Target: BIR3 domain of XIAP (Homo sapiens (Human), UniProt P98170)
Sequence (P98170 other isoform, or with tags, fused parts or gaps): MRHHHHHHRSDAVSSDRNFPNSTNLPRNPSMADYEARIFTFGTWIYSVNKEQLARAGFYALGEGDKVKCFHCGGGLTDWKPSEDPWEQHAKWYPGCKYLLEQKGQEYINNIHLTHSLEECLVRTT
Assay: TR-FRET assay for BIR3: inhibition of binding of the XIAP BIR3 domain to Peptide A (SMAC-derived peptide)
Conditions: read-out: Ic50 BIR3
Counter-ions that a name gives are not always drawn.
readout: IC50

Prompt: Determine reported IC50 for CN[C@@H](C)C(=O)N[C@H](C(=O)N1c2ncccc2CC1CNC(C)=O)C(C)C (stereo partly shown) [Example 2, hydrochloride] ; test system: BIR3 domain of XIAP (Homo sapiens (Human), UniProt P98170).
Response: > 54.8 µM

---

Molecular target: BIR2 domain of XIAP (Homo sapiens (Human), UniProt P98170, C202A/C213G)
Test: TR-FRET assay for BIR2: inhibition of binding of the XIAP BIR2 domain to Peptide A (SMAC-derived peptide)
Details: 6x His-tagged BIR2 domain (aa 124-240 of XIAP), 10 nM; 20 nM Peptide A; TR-FRET; read-out: Ic50 BIR2
Counter-ions that a name gives are not always drawn.
readout: IC50 (nM)
Your answer should be a plain number; it is taken to be in nM.

Field: example entries. Status: answers known.
{"columns": ["molecule", "IC50 / nM"],
 "data": [
  ["CN[C@@H](C)C(=O)N[C@H](C(=O)N1c2ncccc2C[C@H]1CNS(=O)(=O)c1ccccc1)C(C)C [Example 10, hydrochloride]", 820],
  ["CN[C@@H](C)C(=O)N[C@H](C(=O)N1c2ncccc2C[C@H]1CNS(C)(=O)=O)C(C)C [Example 9, hydrochloride]", 1240]
]}

Prompt: Determine reported IC50 for CN[C@@H](C)C(=O)N[C@H](C(=O)N1c2ncccc2C[C@H]1CNC(=O)c1ccccc1)C(C)C [Example 1, hydrochloride] ; test system: BIR2 domain of XIAP (Homo sapiens (Human), UniProt P98170, C202A/C213G).
Response: 888
